The reported measurements were obtained from paper PMC7771846.

target: Hsp90α (Homo sapiens, UniProt P07900)

# smi, Kd / nM
records = [
    ("CN1C(=O)[C@@]23C[C@]4([C@]56C[C@@]78SS[C@@](CO)(C(=O)N7[C@H]5Nc5ccccc56)N(C)C8=O)c5ccccc5N[C@@H]4N2C(=O)[C@]1(CO)SS3", 2820),
]
